test system: RXF 393; experiment: NCI tumour cell line growth inhibition, 48 h
Calls of active or inactive are those of the source. Cut-off read from the data, not from the text of the source: active = GI50 up to about 1.1 µM and inactive = higher.
Please go through the items and note down their GI50.

Before answering, review these 4 worked examples.
Task: GET /values?readout=GI50&item= "CSc1c(C#N)c(O)n(-c2ccc(Cl)cc2)c(=O)c1C(C)=O"
Result: 33.6 µM (inactive)

Task: Same lookup for C[N+](C)(C)c1ncnc2c1ncn2C1CCCCO1 (stereo unspecified) , please.
Result: > 100 µM (inactive)

Task: Same lookup for "Fc1cccc(F)c1C(Nc1nncs1)Nc1nncs1" , please.
Result: > 100 µM (inactive)

Task: Same lookup for "S=c1[nH]c(=S)c2cc(Sc3ccc4[nH]c(=S)[nH]c(=S)c4c3)ccc2[nH]1" , please.
Result: 23.7 µM (inactive)

Go through the items and report each one's GI50.
1. Cn1c(=S)[nH]c2sc3c(c2c1=O)CCSC3
2. O=[N+]([O-])C(=C(N1CCCCC1)N1CCCCC1)/C(Cl)=C(\Cl)Br

Result:
["3.05 µM (inactive)", "20.5 µM (inactive)"]
